The values you see were collected from ChEMBL document CHEMBL1156794.

# maps each entry to its log10(MIC)
test system: Escherichia coli; test: microbe, parasite or virus in culture; conditions: ATCC 25922, 24 h
Description: Antibacterial activity against Escherichia coli ATCC 25922 after 24 hrs by geometric microdilution method
// stored as log10 of MIC expressed in µg/mL

Completed entries (count: 5):
• NC[C@H]1O[C@H](O[C@H]2[C@H](O)[C@@H](O[C@H]3O[C@H](CO)[C@@H](O)[C@H](N)[C@H]3O)[C@H](N)C[C@@H]2N)[C@H](N)C[C@@H]1O = -0.30
• NC[C@H]1O[C@H](O[C@H]2[C@H](O)[C@@H](O)[C@H](N)C[C@@H]2N)[C@H](N)[C@@H](O)[C@@H]1O = 1.51
• NC[C@H]1O[C@H](O[C@H]2[C@H](O)[C@@H](OCc3ccc4ccccc4c3)[C@H](N)C[C@@H]2N)[C@H](N)[C@@H](O)[C@@H]1OCc1ccc2ccccc2c1 = 2.11
• NC[C@H]1O[C@H](O[C@H]2[C@H](O)[C@@H](O)[C@H](N)C[C@@H]2N)[C@H](N)[C@@H](OCc2ccc3ccccc3c2)[C@@H]1OCc1ccc2ccccc2c1 = 1.51
• NC[C@H]1O[C@H](O[C@H]2[C@H](OCc3ccc4ccccc4c3)[C@@H](O)[C@H](N)C[C@@H]2N)[C@H](N)[C@@H](O)[C@@H]1OCc1ccc2ccccc2c1 = 2.11

Q) Please report the recorded log10(MIC) for NC[C@@H]1O[C@H](O[C@H]2[C@@H](O)[C@H](O[C@@H]3[C@@H](O)[C@H](N)C[C@H](N)[C@H]3O[C@H]3O[C@H](CN)[C@@H](O)[C@H](O)[C@H]3N)O[C@@H]2CO)[C@H](N)[C@@H](O)[C@@H]1O .
A) 0.30

Q) Requested read-out: log10(MIC). Entry: NCC[C@H](O)C(=O)N[C@@H]1C[C@H](N)[C@@H](O[C@H]2O[C@H](CN)[C@@H](O)[C@H](O)[C@H]2O)[C@H](O)[C@H]1O[C@H]1O[C@H](CO)[C@@H](O)[C@H](N)[C@H]1O
A) 0.60
